Target: T1, human VPAC2 receptor (human, UniProt P41587 24-438)
T1 sequence (looked up): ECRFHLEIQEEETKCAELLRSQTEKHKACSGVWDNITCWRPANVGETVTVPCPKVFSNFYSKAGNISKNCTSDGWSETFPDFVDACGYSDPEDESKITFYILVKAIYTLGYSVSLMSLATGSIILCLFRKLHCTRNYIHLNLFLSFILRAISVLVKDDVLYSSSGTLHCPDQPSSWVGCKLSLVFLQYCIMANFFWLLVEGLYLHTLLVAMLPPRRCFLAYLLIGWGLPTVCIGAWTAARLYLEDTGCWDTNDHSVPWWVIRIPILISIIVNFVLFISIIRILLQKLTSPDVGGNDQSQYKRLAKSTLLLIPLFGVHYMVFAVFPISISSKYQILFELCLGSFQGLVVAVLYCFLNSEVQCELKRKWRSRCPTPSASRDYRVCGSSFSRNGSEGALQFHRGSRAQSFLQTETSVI
Test: cell-based or functional assay
observationType: Human VPAC2 Receptor: Alphascreen (EC50; nM)

binder="HSDAVFTEQYTXLRXQVAAXXYLXSIXXGGPSSGAPPPS (C6-HSDAVFTEQY(OMe)TOrnLRAibQVAAAibOrnYLK(WPEG40K)SIOrnOrnGGPSSGAPPPS-NH2) [P531]" unitofmeasure=nM readoutvalue=94.6
binder="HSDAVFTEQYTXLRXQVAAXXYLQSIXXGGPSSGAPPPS (C6-HSDAVFTEQY(OMe)TOrnLRAibQVAAAibK(W-PEG40K)YLQSIOrnOrnGGPSSGAPPPS-NH2) [P410]" unitofmeasure=nM readoutvalue=129
binder="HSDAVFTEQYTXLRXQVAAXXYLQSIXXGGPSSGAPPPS (C6-HSDAVFTEQY(OMe)TOrnLRAibQVAAAibK(CO(CH2)2SPEG20K)YLQSIOrnOrnGGPSSGAPPPS-NH2) [P473]" unitofmeasure=nM readoutvalue=26.5
binder="HSDAVFTEQYTXLRCQVAAXXYLQSIXXGGPSSGAPPPS (C6-HSDAVFTEQY(OMe)TOrnLRC(PEG40K)QVAAAibOrnYLQSIOrnOrnGGPSSGAPPPS-NH2) [P483]" unitofmeasure=nM readoutvalue=33.5
binder="HSDAVFTEQYTXLRXQLAXXXYLQSIXXCGGPSSGAPPPS (C6-HSDAVFTEQY(OMe)TOrnLRAibQLAAbuAibOrnYLQSIOrnOrnC(PEG40K)GGPSSGAPPPS-NH2) [P566]" unitofmeasure=nM readoutvalue=11.8
binder="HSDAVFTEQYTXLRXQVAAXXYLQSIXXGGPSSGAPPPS (C6-HSDAVFTEQY(OMe)TOrnLRK(CO(CH2)2SPEG40K)QVAAAibOrnYLQSIOrnOrnGGPSSGAPPPS-NH2) [P485]" unitofmeasure=nM readoutvalue=44.5
binder="HSDAVFTEQYTXLRXQLAXXXYLQSIXXCGGPSSGAPPPC (C6-HSDAVFTEQY(OMe)TOrnLRAibQLAAbuAibOrnYLQSIOrnOrnC(PEG20K)GGPSSGAPPPC(PEG20K)-NH2) [P572]" unitofmeasure=nM readoutvalue=11.2
binder="HSDAVFTEQYTXLRXQVAAXCYLQSIXXGGPSSGAPPPS (C6-HSDAVFTEQY(OMe)TOrnLRAibQVAAAibC(PEG40K)YLQSIOrnOrnGGPSSGAPPPS-NH2) [P460]" unitofmeasure=nM readoutvalue=430
binder="HSDAVFTEQYTXLRXQCAXXXYLQXIXXGGPSSGAPPPS (C6-HSDAVFTEQY(OMe)TOrnLRAibQC(PEG40K)AAbuAibOrnYLQAibIOrnOrnGGPSSGAPPPS-NH2) [P545]" unitofmeasure=nM readoutvalue=45
binder="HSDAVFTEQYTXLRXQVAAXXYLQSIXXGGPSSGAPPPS (C6-HSDAVFTEQY(OMe)TOrnLRAibQVAAK(CO(CH2)2SPEG40K)OrnYLQSIOrnOrnGGPSSGAPPPS-NH2) [P475]" unitofmeasure=nM readoutvalue=109
binder="HSDAVFTEQYTXLRXQVAAXXYLQSIXXCGGPSSGAPPPC (C6-HSDAVFTEQY(OMe)TOrnLRAibQVAAAibOrnYLQSIOrnOrnC(PEG20K)GGPSSGAPPPC(PEG20K)-NH2) [P562]" unitofmeasure=nM readoutvalue=30.2
binder="HSDAVFTEQYTXLRXQVAAXXYLQXIXXGGPSSGAPPPC (C6-HSDAVFTEQY(OMe)TOrnLRAibQVAAAibOrnYLQAibIOrnOrnGGPSSGAPPPC(PEG40K)-NH2) [P509]" unitofmeasure=nM readoutvalue=13
binder="HSDAVFTEQYTXLRXQVAAXXYLQSIXCXGGPSSGAPPPC (C6-HSDAVFTEQY(OMe)TOrnLRAibQVAAAibOrnYLQSIOrnC(PEG20K)OrnGGPSSGAPPPC(PEG20K)-NH2) [P505]" unitofmeasure=nM readoutvalue=40.5
